So I've got a bunch of compounds here, and I need their % Inhibition values.
system: P. falciparum stage V gametocytes; set-up: BacTiter-Glo ATP luminescence viability of purified stage V gametocytes in 384-well plates, per cent inhibition versus DMSO; conditions: 48 h, 5 µM; inhibitor
Hit rate of the full screen: of about 13,000 compounds, about 3,200 (25%) showed an effect of 50% or more. The list shows a part of the results.
Write the answer as a number in %, unit excluded.

Reported % Inhibition ( Nc1nnc(-c2ccc(Cl)c(Br)c2)c(N)n1 [TCMDC-137285] ) = -16.33

Reported % Inhibition ( COc1ccc(NC(=O)c2ccc(-c3nc(-c4ccc(Cl)cc4)cs3)cc2)cc1N1CCN(C)CC1 [TCMDC-138685] ) = 18.54

Reported % Inhibition ( COc1ccc(CN(C)CCCc2ccc(NC(=O)c3cc4ccccc4[nH]3)cc2)cc1OC [TCMDC-131855] ) = -11.14

Reported % Inhibition ( O=C(N[C@H]1CCN(CCc2ccc(O[C@H]3CCNC3)c(Br)c2)C1)c1ccc(Cl)c(Cl)c1 [TCMDC-141069] ) = 53.75

Reported % Inhibition ( Cc1ccc(C(NC(=O)c2ccccc2)c2ccc3cccnc3c2O)cc1 (stereo not drawn) [TCMDC-125552] ) = 16.34

Reported % Inhibition ( O=C(CCNc1ccnc(NCCc2ccccc2)n1)Nc1ccccc1 [TCMDC-134809] ) = 42.97

Reported % Inhibition ( Cc1cc(N(C)CCCN2CCCCC2)nc(Nc2ccc(Cl)cc2)n1 [TCMDC-137485] ) = 86.59

Reported % Inhibition ( CCCCC(O)c1cc(O)c2c(c1)OC(C)(C)CC2C1=CCN(Cc2ccc3ccccc3c2)CC1 (stereo not drawn) [TCMDC-131420] ) = -23.67

Reported % Inhibition ( COCCNC(=O)c1ccc(OC2CCN(Cc3ccc(F)c(F)c3)CC2)c(Cl)c1 [TCMDC-124653] ) = 4.866

Reported % Inhibition ( Cc1cccc(-n2c(=O)c3c4c(sc3n3c(SCCC(C)C)nnc23)CCCC4)c1 [TCMDC-125651] ) = 34.66

Reported % Inhibition ( Cc1ccccc1CNc1nccc(NCCC(=O)Nc2ccccc2)n1 [TCMDC-134913] ) = 50.88

Reported % Inhibition ( O=C(NC(c1ccccc1)c1ccc2cccnc2c1O)c1ccccc1 (stereo not drawn) [TCMDC-123701] ) = 103.7

Reported % Inhibition ( CC(=O)c1ccc(N2CCN(C(=O)Nc3ccc(Cl)cc3)CC2)cc1 [TCMDC-125821] ) = -3.219

Reported % Inhibition ( CC(C)C[C@H](NC(=O)c1ccc(OCCN2CCOCC2)cc1)C(=O)N[C@H](/C=N/N1CC(=O)NC1=O)CCc1ccccc1 [TCMDC-136155] ) = 17.61

Reported % Inhibition ( O=C(CCNc1ccnc(NCCc2ccc(F)cc2)n1)Nc1ccccc1 [TCMDC-134824] ) = 63.53

Reported % Inhibition ( Cc1cc(=O)c2cc(Oc3cccc(OC(F)(F)F)c3)ccc2[nH]1 [TCMDC-132124] ) = -25.2

Reported % Inhibition ( O=C(N[C@H]1CCN(Cc2ccc(OC3CCN(Cc4ccccc4)CC3)c(Br)c2)C1)c1ccc(Cl)c(Cl)c1 [TCMDC-140286] ) = 18.35

Reported % Inhibition ( Oc1cc(Nc2ccnc3ccc(I)cc23)c(F)cc1Cl [TCMDC-138500] ) = -12.42

Reported % Inhibition ( COc1cccc(C(NC(=O)c2ccccc2)c2ccc3cccnc3c2O)c1 (stereo not drawn) [TCMDC-125755] ) = 75.54

Reported % Inhibition ( Cc1cnc(NCCc2ccc(F)cc2)nc1NCCC(=O)Nc1ccccc1 [TCMDC-134850] ) = 59.7

Reported % Inhibition ( Cc1cnc(NCCc2ccc(F)cc2)nc1N[C@@H](CC(C)C)C(=O)Nc1ccccc1 [TCMDC-134851] ) = -15.21

Reported % Inhibition ( Cc1ccc2[nH]c(-c3ccc(/C=C/C(=O)NC4CCN(Cc5ccccc5)CC4)cc3)nc2c1C [TCMDC-140451] ) = -45.16

Reported % Inhibition ( Cc1ccc2nc(-c3ccc(C=CC(=O)NC4CCN(Cc5ccccc5)CC4)cc3)[nH]c2c1 [TCMDC-140401] ) = 2.225

Reported % Inhibition ( CC(=O)Nc1ccc(CN2CCC(N(C)c3cc(NC(=O)c4cccc(F)c4)ccn3)CC2)cc1 [TCMDC-134981] ) = -20.16

Reported % Inhibition ( CC1(C)N=C(N)N=C(N)N1OCCOc1ccc2ccccc2c1 [TCMDC-131609] ) = -8.756

Reported % Inhibition ( N#Cc1ccc2c(c1)CCN(CCC1CCC(NC(=O)/C=C/c3cccc4cc[nH]c34)CC1)CC2 (stereo not drawn) [TCMDC-139671] ) = -14.99

Reported % Inhibition ( N#Cc1cccc(C(=O)Nc2cccc(-c3ccc(C(=O)NCCCN4CCOCC4)cc3)c2)c1 [TCMDC-133694] ) = -17.34
